Quick reference: half-life of the listed items.
protocol notes: Half life in iv dosed rat
Format: ADME, organism-based
settings: in vivo
measure: half-life (min)

>>> endpoint_result("COc1cc(NCc2ccc(/C=C/C(=O)Nc3ccccc3N)cc2)cc(OC)c1OC")
108
>>> endpoint_result("COc1ccc(NCc2ccc(C(=O)Nc3ccccc3N)cc2)cc1OC")
42

###

protocol notes: Bioavailability in rat
Format: ADME, organism-based
settings: in vivo
measure: bioavailability (%)

>>> endpoint_result("COc1cc(NCc2ccc(/C=C/C(=O)Nc3ccccc3N)cc2)cc(OC)c1OC")
65

###

Test system: HCT-116
protocol notes: Antiproliferative activity against human HCT116 cells by MTT assay
Format: functional, cell-based
Quick reference: IC50 of the listed items.
measure: IC50 (µM)

>>> endpoint_result("CN(C)c1ccc(CNc2ccc(/C=C/C(=O)Nc3ccccc3N)cn2)cc1")
3
>>> endpoint_result("Nc1ccccc1NC(=O)/C=C/c1ccc(NCc2ccc(F)cc2)nc1")
2
>>> endpoint_result("Nc1ccccc1NC(=O)/C=C/c1ccc(NCCCc2ccccc2)nc1")
2
>>> endpoint_result("Nc1ccccc1NC(=O)/C=C/c1ccc(NCCNc2ccccc2)nc1")
5
>>> endpoint_result("COc1ccc(NCc2ccc(/C=C/C(=O)Nc3ccccc3N)cc2)cc1OC")
5
>>> endpoint_result("COc1ccc(CNc2ccc(C(=O)Nc3ccccc3N)cc2)cc1")
1
>>> endpoint_result("COc1cc(NCc2ccc(C(=O)Nc3ccccc3N)cc2)cc(OC)c1OC")
2
>>> endpoint_result("Nc1ccccc1NC(=O)/C=C/c1ccc(NCc2ccncc2)nc1")
7

Cited source: ChEMBL document CHEMBL1146002
